The measurements presented in this section are drawn from paper PMC9112550.

- Test system: HeLa cells
- ASSAY_PROCEDURE: In vitro toxicity assay (MTT), HeLa
- Format: cell-based, human
- PARTICULARS: HeLa; MTT; 24 h, 37°C; triplicates
- Source text: […]
Where no end group is shown, it is not given here.
MEASURE_NAME: IC50 (µM)
Provide only the numeric value, understood in µM.

Param readout = IC50; param system = HeLa cells; param query = RRIRIRPPRLPRPRPRPYFMPRP [Bac7PS] ; response: value
521
